Consider the following binders; for each one, report its koff.
# STUDY TARGET: T1, human beta CGRP (SEQ ID NO: 81) (human, not fully specified)
# T1 construct: also called human βCGRP; hβCGRP
# T1 peptide: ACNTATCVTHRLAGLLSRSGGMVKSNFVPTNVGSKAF
# TEST PROTOCOL: SPR, 37 C, mutein captured, CGRP analyte
Numbers only, in s⁻¹.

lipocalin mutein SEQ ID NO: 15 (designed binder, biotinylated by NHS chemistry for capture in SPR) QDSTSDLIPAPPLSKVPLQQNFQDNQFHGKWYVVGRAANDRLREDKDPEKMEATIYELKEDKSYNVTDVGFSRKKCIYVIHTFVPGSQPGEFTLGNIKSYPGTTSGLVRVVSTNYNQHAMVFFKVVGQNRESFEITLYGRTKELTSELKENFIRFSKSLGLPENHIVFPVPIDQCIDGSAWSHPQFEK ... 0.000273

Shift focus to the following entry.
Suppose we examine the binder lipocalin mutein SEQ ID NO: 12 (designed binder, biotinylated by NHS chemistry for capture in SPR) QDSTSDLIPAPPLSKVPLQQNFQDNQFHGKWYVVGWAGNTLLREDKDPPKMQATIYELKEDRSYNVTWVYFSEKKCNYHIETSVPGSQPGEFTLGTIQSHPGETPILVRVVSTNYNQHAMVFFKGMGQNREIFEITLYGRTKELTSELKENFIRFSKSLGLPENHIVFPVPIDQCIDGSAWSHPQFEK ; what koff value has been reported?
0.000104
